# Test system: HOS (Osteosarcoma)
# assay.text: combination Emax (second highest fraction inhibited in the dose matrix, 72 h); higher = more inhibition; extreme values may be limits of the assay
What combination Emax was measured for each of the following?
Answers are plain numbers.

- compound: "O=C(c1cc(Cc2n[nH]c(=O)c3ccccc23)ccc1F)N1CCN(C(=O)C2CC2)CC1 [Olaparib] + Cc1c2c(nn1C)CSCc1cc(n(C)n1)CSc1cc(c3ccccc3c1)OCCCc1c(C(=O)O)n(C)c3c-2c(Cl)ccc13 [AZD5991] (first compound max 10 µM, 7x7, partner max 1 µM)"
  target.of.assay: "HOS (Osteosarcoma)"
  combination Emax: 0.254

Need combination Emax for each of these compounds.
1. COc1cccc(OCCCN)c1-c1cc(Nc2cnc(C#N)cn2)n[nH]1 [Prexasertib] + CCc1c2c(nc3ccc(O)cc13)-c1cc3c(c(=O)n1C2)COC(=O)[C@]3(O)CC [SN-38] (first compound max 1 µM, 7x7, partner max 0.3 µM)
2. N#Cc1cnc(Nc2cc(NC[C@H]3CNCCO3)c(C(F)(F)F)cn2)cn1 [SRA737] + C=CCn1c(=O)c2cnc(Nc3ccc(N4CCN(C)CC4)cc3)nc2n1-c1cccc(C(C)(C)O)n1 [AZD1775] (first compound max 10 µM, partner max 1 µM)
3. C=CCn1c(=O)c2cnc(Nc3ccc(N4CCN(C)CC4)cc3)nc2n1-c1cccc(C(C)(C)O)n1 [AZD1775] + O=C(c1cc(Cc2n[nH]c(=O)c3ccccc23)ccc1F)N1CCN(C(=O)C2CC2)CC1 [Olaparib] (first compound max 1 µM, partner max 10 µM)
4. COc1nnc2ccc(N3CCC(c4ccc(OCCN5CCN(C)C(=O)[C@H]5C)cc4)CC3)nn12 [AZD5153] + CCN(CCO)CCCOc1ccc2c(Nc3cc(CC(=O)Nc4cccc(F)c4)[nH]n3)ncnc2c1 [AZD2811] (first compound max 1 µM, 7x7, partner max 1 µM)
5. NC1(C(=O)N[C@@H](CCO)c2ccc(Cl)cc2)CCN(c2ncnc3[nH]ccc23)CC1 [Capivasertib] + Cn1cnc2c(F)c(Nc3ccc(Br)cc3Cl)c(C(=O)NOCCO)cc21 [Selumetinib] (first compound max 10 µM, 7x7, partner max 10 µM)

Outgoing:
1. 0.994
2. 0.811
3. 0.417
4. 0.486
5. 0.491

Incoming: Item Cc1c2c(nn1C)CSCc1cc(n(C)n1)CSc1cc(c3ccccc3c1)OCCCc1c(C(=O)O)n(C)c3c-2c(Cl)ccc13 [AZD5991] + CC(=O)O[C@H]1C(=O)[C@@]2(C)[C@H]([C@H](OC(=O)c3ccccc3)[C@]3(O)C[C@H](OC(=O)[C@H](O)[C@@H](NC(=O)c4ccccc4)c4ccccc4)C(C)=C1C3(C)C)[C@]1(OC(C)=O)CO[C@@H]1C[C@@H]2O [Paclitaxel] (first compound max 1 µM, 7x7, partner max 3 µM) with HOS (Osteosarcoma) - combination Emax?
Outgoing: 0.964

The measured values listed here are drawn from the supplement of paper PMC11061612.
